Test system: rodent lifetime carcinogenesis bioassay, tumor incidence TD50
Experimental details: carcinogenic potency in animals, long-term in vivo studies, CPDB compilation (AID 1745844)
Measurement setup: mouse; strain B6C3F1; females; by gavage; site: all sites; lesion: histiocytic sarcoma + malignant lymphoma, histiocytic type + malignant lymphoma, mixed type + malignant lymphoma, lymphocytic; dosed 88 weeks; study length 104 weeks
Recorded metric: TD50 (mg/kg/day)
Provide only the numeric value, understood in mg/kg/day.

Provide only the value of recorded TD50 for ClCC(Cl)CCl
8.64

###

Test system: rodent lifetime carcinogenesis bioassay, tumor incidence TD50
Experimental details: carcinogenic potency in animals, long-term in vivo studies, CPDB compilation (AID 1745844)
Measurement setup: rat; strain Fischer 344; males; in feed; site: urinary bladder; lesion: transitional-cell carcinoma; dosed 103 weeks; study length 104 weeks
Assignment: determine reported TD50 for the given molecules.

Given the molecule Nc1ccc(N)c2c1C(=O)c1c(N)ccc(N)c1C2=O , write its reported TD50.
506 mg/kg/day

Look up and state reported TD50 for Nc1c(Br)cc(Br)c2c1C(=O)c1ccccc1C2=O
1790 mg/kg/day

###

Tested on: rodent lifetime carcinogenesis bioassay, tumor incidence TD50
Experimental details: carcinogenic potency in animals, long-term in vivo studies, CPDB compilation (AID 1745844)
Measurement setup: mouse; strain NMRI; females; in feed; site: lung; lesion: alveolar/bronchiolar adenoma; dosed 107 weeks; study length 107 weeks
Calls of active or inactive are those of the source. The rule behind the calls is not given here.
Recorded metric: TD50

Respond only with TD50 recorded for O=C(O)c1ccc(N=Nc2ccc(O)c(C(=O)O)c2)cc1
2650 mg/kg/day (inactive)

###

Test system: rodent lifetime carcinogenesis bioassay, tumor incidence TD50
Experimental details: carcinogenic potency in animals, long-term in vivo studies, CPDB compilation (AID 1745844)
Measurement setup: hamster; strain Syrian Golden; males; in feed; site: forestomach; lesion: several types; types named in the paper; dosed 94 weeks; study length 94 weeks
Recorded metric: TD50 (mg/kg/day)
Please reply with the bare figure in mg/kg/day and do not write the unit itself.

Find the measured TD50 of NC(=O)C(=Cc1ccc([N+](=O)[O-])o1)c1ccco1 and report it.
30.5

###

Tested on: rodent lifetime carcinogenesis bioassay, tumor incidence TD50
Experimental details: carcinogenic potency in animals, long-term in vivo studies, CPDB compilation (AID 1745844)
Measurement setup: rat; strain Fischer 344; males; by gavage; site: preputial gland; lesion: adenoma, NOS; dosed 103 weeks; study length 104 weeks
Recorded metric: TD50 (mg/kg/day)
Answer format: numeric, mg/kg/day implied, no suffix.

Consider the molecule S=c1[nH]c2ccccc2s1 . State its measured TD50.
1710

###

Test system: rodent lifetime carcinogenesis bioassay, tumor incidence TD50
Experimental details: carcinogenic potency in animals, long-term in vivo studies, CPDB compilation (AID 1745844)
Measurement setup: mouse; strain B6C3F1; females; by gavage; site: any site (literature study); lesion: several types; types named in the paper; dosed 99 weeks; study length 104 weeks
Calls of active or inactive are those of the source. The rule behind the calls is not given here.
Recorded metric: TD50

Quickly give me recorded TD50 for ClCc1ccccn1
9790 mg/kg/day (inactive)

###

Test system: rodent lifetime carcinogenesis bioassay, tumor incidence TD50
Experimental details: carcinogenic potency in animals, long-term in vivo studies, CPDB compilation (AID 1745844)
Measurement setup: mouse; strain B6C3F1; females; i.p.; site: lung; lesion: alveolar/bronchiolar adenoma + alveolar/bronchiolar carcinoma; dosed 52 weeks; study length 85 weeks
Recorded metric: TD50
Form entry: enter the amount, then its unit.

Tell us which TD50 value is on record for CNNCc1ccc(C(=O)NC(C)C)cc1
3.83 mg/kg/day

###

Test system: rodent lifetime carcinogenesis bioassay, tumor incidence TD50
Experimental details: carcinogenic potency in animals, long-term in vivo studies, CPDB compilation (AID 1745844)
Measurement setup: mouse; strain B6C3F1; males; by gavage; site: liver; lesion: hepatocellular adenoma + hepatocellular carcinoma + neoplastic nodule; dosed 67 weeks; study length 91 weeks
Recorded metric: TD50 (mg/kg/day)
Give just the numeric value; mg/kg/day need not be written.

Answer with the recorded TD50 of C=CCCl only.
457

###

System: rodent lifetime carcinogenesis bioassay, tumor incidence TD50
Experimental details: carcinogenic potency in animals, long-term in vivo studies, CPDB compilation (AID 1745844)
Measurement setup: hamster; strain Syrian Golden; females; by gavage; site: trachea; lesion: papillary polyp; dosed 59 weeks; study length 83 weeks
Recorded metric: TD50

Give TD50 for CC1CN(N=O)CC(C)O1 (stereo unspecified)
6.4 mg/kg/day

###

Tested on: rodent lifetime carcinogenesis bioassay, tumor incidence TD50
Experimental details: carcinogenic potency in animals, long-term in vivo studies, CPDB compilation (AID 1745844)
Measurement setup: rat; strain Sprague-Dawley; females; in drinking water; site: forestomach; lesion: several types; types named in the paper; dosed 60 weeks; study length 95 weeks
Recorded metric: TD50

Determine from records and report TD50 for CN(C#N)N=O
0.48 mg/kg/day

###

Test system: rodent lifetime carcinogenesis bioassay, tumor incidence TD50
Experimental details: carcinogenic potency in animals, long-term in vivo studies, CPDB compilation (AID 1745844)
Measurement setup: rat; strain Fischer 344; males; by gavage; site: multiple organs + thyroid gland; lesion: mononuclear-cell leukemia + follicular-cell carcinoma; dosed 103 weeks; study length 104 weeks
Recorded metric: TD50 (mg/kg/day)
Give the value in mg/kg/day but do not write mg/kg/day after it.

Output measured TD50 for this item: CC(I)C1OCC(CO)O1 (stereo unspecified)
84.1

###

Tested on: rodent lifetime carcinogenesis bioassay, tumor incidence TD50
Experimental details: carcinogenic potency in animals, long-term in vivo studies, CPDB compilation (AID 1745844)
Measurement setup: mouse; strain BALB/cStCrlfC3Hf/Nctr; females; in drinking water; site: lung; lesion: several types; types named in the paper; dosed 52 weeks; study length 52 weeks
Recorded metric: TD50 (mg/kg/day)
Write the number in mg/kg/day without appending the unit.

Using known records, supply TD50 for Cc1cc(-c2ccc(N)c(C)c2)ccc1N
28.1

###

For each record, write down the corresponding TD50.
System: rodent lifetime carcinogenesis bioassay, tumor incidence TD50
Experimental details: carcinogenic potency in animals, long-term in vivo studies, CPDB compilation (AID 1745844)
Measurement setup: rat; strain Fischer 344; females; by gavage; site: uterus; lesion: several types; types named in the paper; dosed 50 weeks; study length 104 weeks

With rodent lifetime carcinogenesis bioassay, tumor incidence TD50 as the test system, provide measured TD50 for this compound: CCCCCCN(N=O)C(N)=O
0.579 mg/kg/day

Param request: TD50 | system rodent lifetime carcinogenesis bioassay, tumor incidence TD50 | item CCCCCN(N=O)C(N)=O
0.934 mg/kg/day

###

Test system: rodent lifetime carcinogenesis bioassay, tumor incidence TD50
Experimental details: carcinogenic potency in animals, long-term in vivo studies, CPDB compilation (AID 1745844)
Measurement setup: rat; strain Fischer 344; males; by gavage; site: forestomach; lesion: papilloma; dosed 30 weeks; study length 102 weeks
Recorded metric: TD50

Tell me measured TD50 for CCCCCCCCCCN(C)N=O please.
46.6 mg/kg/day

###

Test system: rodent lifetime carcinogenesis bioassay, tumor incidence TD50
Experimental details: carcinogenic potency in animals, long-term in vivo studies, CPDB compilation (AID 1745844)
Measurement setup: rat; strain Fischer 344; males; in drinking water; site: liver; lesion: neoplastic nodule; dosed 93 weeks; study length 128 weeks
Active and inactive are the calls of the source. How the calls were made is not given here.
Recorded metric: TD50

Return TD50 for the following compound: CCCCCCCCCCCC[N+](C)(C)[O-]
496 mg/kg/day (inactive)

###

System: rodent lifetime carcinogenesis bioassay, tumor incidence TD50
Experimental details: carcinogenic potency in animals, long-term in vivo studies, CPDB compilation (AID 1745844)
Measurement setup: rat; strain Long-Evans; females; in feed; site: any site (literature study); lesion: malignant tumor; dosed 78 weeks; study length 104 weeks
The source made the active and inactive calls. No rule for the calls is given here.
Recorded metric: TD50

Let me know recorded TD50 for CC(C)NCC(O)c1ccc(NS(C)(=O)=O)cc1 (stereo unspecified) , thanks.
1600 mg/kg/day (inactive)

###

System: rodent lifetime carcinogenesis bioassay, tumor incidence TD50
Experimental details: carcinogenic potency in animals, long-term in vivo studies, CPDB compilation (AID 1745844)
Measurement setup: mouse; strain CTM; females; in drinking water; site: any site (literature study); lesion: several types; types named in the paper; dosed 50 weeks; study length 100 weeks
Calls of active or inactive are those of the source. The rule behind the calls is not given here.
Recorded metric: TD50

Name the recorded TD50 of the item C1N2CN3CN1CN(C2)C3 in your answer.
11600 mg/kg/day (inactive)

###

Assignment: determine reported TD50 for the given compounds.
System: rodent lifetime carcinogenesis bioassay, tumor incidence TD50
Experimental details: carcinogenic potency in animals, long-term in vivo studies, CPDB compilation (AID 1745844)
Measurement setup: rat; strain Sprague-Dawley; males; by gavage; site: any site (literature study); lesion: malignant tumor; dosed 104 weeks; study length 123 weeks
Write the number in mg/kg/day without appending the unit.

Assign TD50 to the following record: Cc1cccc(C)c1
1820

Please supply the value of reported TD50 for the item Cc1ccc(C)c(C)c1
13900
